system under test: UniProtKB P51684
Sequence (P51684 whole entry): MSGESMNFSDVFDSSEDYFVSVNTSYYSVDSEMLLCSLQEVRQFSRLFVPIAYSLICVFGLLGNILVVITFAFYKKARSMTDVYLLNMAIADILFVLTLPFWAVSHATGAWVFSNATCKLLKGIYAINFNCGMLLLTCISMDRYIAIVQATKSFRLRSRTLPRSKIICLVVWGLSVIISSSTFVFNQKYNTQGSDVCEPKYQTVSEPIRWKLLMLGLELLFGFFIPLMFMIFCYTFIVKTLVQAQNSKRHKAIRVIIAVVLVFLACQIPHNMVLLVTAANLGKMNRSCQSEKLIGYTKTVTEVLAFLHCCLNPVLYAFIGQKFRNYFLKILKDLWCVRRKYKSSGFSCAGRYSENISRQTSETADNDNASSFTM
metric: pIC50
One number for each entry, as −log10 of the molar value.

-- ask pIC50 lookup needed for CN1C(=O)C(C2CC(c3ccc(Cl)cc3)N=N2)C(=O)N(C)C1=O (stereo unspecified) , thanks.
-- reply 5.23
